// provenance: paper PMC8844822

Test Target: hSARM1 full length (Homo sapiens, UniProt Q6SZW1)
Construct: Human recombinant SARM1 full length proteins (wild-type and E642A mutant); made in house
Sequence (Q6SZW1 28-724): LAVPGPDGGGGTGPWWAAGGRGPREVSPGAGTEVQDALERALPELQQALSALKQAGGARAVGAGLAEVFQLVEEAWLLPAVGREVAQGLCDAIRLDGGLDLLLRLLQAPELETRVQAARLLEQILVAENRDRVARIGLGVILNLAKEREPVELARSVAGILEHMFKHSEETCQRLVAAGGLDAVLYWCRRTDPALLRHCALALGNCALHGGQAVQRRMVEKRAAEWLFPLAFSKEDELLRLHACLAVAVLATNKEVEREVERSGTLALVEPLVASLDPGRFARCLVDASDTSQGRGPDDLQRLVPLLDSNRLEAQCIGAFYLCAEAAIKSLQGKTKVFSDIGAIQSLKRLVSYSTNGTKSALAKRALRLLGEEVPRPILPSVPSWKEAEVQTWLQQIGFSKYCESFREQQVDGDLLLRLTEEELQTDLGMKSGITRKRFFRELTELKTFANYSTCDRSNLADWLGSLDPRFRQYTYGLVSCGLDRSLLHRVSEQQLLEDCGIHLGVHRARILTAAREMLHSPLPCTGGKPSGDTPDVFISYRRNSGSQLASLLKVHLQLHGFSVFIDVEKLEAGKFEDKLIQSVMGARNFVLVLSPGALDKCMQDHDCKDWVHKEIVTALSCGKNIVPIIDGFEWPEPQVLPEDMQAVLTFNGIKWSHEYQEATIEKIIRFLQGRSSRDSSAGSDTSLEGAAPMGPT
Method Summary: Base exchange reactions at neutral pH (HPLC)
Format: biochemical
Condition Info: hSARM1 full length +NMN 0.2 mM; NADP […]; relative to NADP alone without trigger
Assignment: determine reported rate (relative fold) for the given compounds.
Answers are plain numbers, in fold.

O=C(NCc1cccnc1)Nc1ccc([N+](=O)[O-])cc1 = 9.16
O=C(O)c1cccnc1 = 8.98
NC(=O)c1ccc[n+]([C@@H]2O[C@H](COP(=O)([O-])O)[C@@H](O)[C@H]2O)c1 [NMN, nicotinamide mononucleotide] = 7.98

Look at this compound and give its reported rate (relative fold). CC(=O)c1cccnc1
8.92
